The values you see were collected from PubChem BioAssay (NCI).

Attribute: TGI
System: NCI-H23 lung
Method: NCI tumour cell line growth inhibition, 48 h
Property: TGI

> print(dat)
                                   molecule  target.under.test  observed
1  Cc1[nH]c(=O)nc2c1C(NCCCN(C)C)c1cc(Cl)ccc1N2 (stereo not drawn)       NCI-H23 lung   32.3 µM
2  COc1cc(/C=C2\C[C@H]3[C@@H]4CC=C5C[C@@H](O)CC[C@]5(C)[C@H]4CC[C@]3(C)[C@H]2O)ccc1OCCN1CCCC1       NCI-H23 lung     26 µM
3  CN1CCC(COc2cnc(-c3cccc(Cn4nc(-c5cccc(C#N)c5)ccc4=O)c3)nc2)CC1       NCI-H23 lung   21.6 µM
4  O=C(NC(=S)Nc1ccc2c(c1)Sc1ccccc1O2)c1ccc([N+](=O)[O-])cc1       NCI-H23 lung  > 100 µM
5  Cc1ccc(S(=O)(=O)N2CCN(S(=O)(=O)c3ccc(C)cc3)CCN(S(=O)(=O)c3ccc(C)cc3)Cc3cc(C#N)c(C#N)cc3CN(S(=O)(=O)c3ccc(C)cc3)CC2)cc1       NCI-H23 lung  > 100 µM
6  CCOC(=O)c1ccc(Nc2sc(C(=O)c3ccc(Br)cc3)c(N)c2C#N)cc1       NCI-H23 lung  > 100 µM
7  CCN1CCCC(C#N)(c2ccccc2)CC1 (stereo not drawn)       NCI-H23 lung  > 100 µM
8  CC(=O)Nc1ccc(/C=c2\sc3nnc(CCC(=O)Nc4ccccc4Cl)n3c2=O)cc1       NCI-H23 lung  > 100 µM
